# ASSAY_PROCEDURE: Half life in rat microsomes
# TEST_CONDITIONS: in vitro
OBSERVABLE: half-life (min)

- [2H]c1nc(Nc2ncc(F)c(-c3cc(F)c4nc(C)n(C(C)C)c4c3)n2)c([2H])c([2H])c1CN1CCN(C([2H])([2H])C([2H])([2H])[2H])CC1: 47.1
- [2H]C([2H])([2H])C([2H])([2H])N1C([2H])([2H])C([2H])([2H])N(Cc2ccc(Nc3ncc(F)c(-c4cc(F)c5nc(C)n(C(C)C)c5c4)n3)nc2)C([2H])([2H])C1([2H])[2H]: 57.4
- CCN1CCN(Cc2ccc(Nc3ncc(F)c(-c4cc(F)c5nc(C)n(C(C)C)c5c4)n3)nc2)CC1: 39.5
- [2H]C([2H])([2H])C([2H])([2H])N1CCN(Cc2ccc(Nc3ncc(F)c(-c4cc(F)c5nc(C)n(C(C)C)c5c4)n3)nc2)CC1: 47.1
